Source: PubChem BioAssay (NCI)

Listed here are compounds together with their documented growth.
test system: PC-3 prostate; experiment: NCI-60 one-dose screen, 48 h (100 = growth as untreated, 0 = no growth, -100 = all killed); settings: 10 µM unless noted
The panel holds about 83,000 compounds, 20% with a hit somewhere; the sample as a whole holds those more often.

- compound: "COc1ccc(-c2cnc3ccnn3c2-c2cc(OC)c(OC)c(OC)c2)cc1"
  growth, %: 29.9
- compound: "COc1ccc2[nH]c(O)c(/C=c3/ccc4c(c3)N=C(c3ccc(C(F)(F)F)cc3)N=4)c2c1"
  growth, %: 43.1
- compound: "CCCc1n(Cc2ccc3ccccc3c2)c2ccccc2[n+]1Cc1ccc2ccccc2c1"
  growth, %: -22.8
- compound: "Cc1cc(C)c2c(n1)sc1c(Nc3ccc(Cl)cc3Cl)ncnc12"
  growth, %: 50.9
- compound: "Nc1ccc(N(O)/C=C2\\C=CC=CC2=O)cc1N"
  growth, %: 69.6
- compound: "CC(=O)Nc1nonc1-c1nc2ccccc2n1Cc1ccc(C(C)(C)C)cc1"
  growth, %: 28.6
- compound: "Cc1ccc2oc(=O)cc(-c3nc4ccc([N+](=O)[O-])cc4[nH]3)c2c1"
  growth, %: 48.9
- compound: "COc1ccc(C2CC(c3cccc(Nc4ccnc5cc(Cl)ccc45)c3)=NN2c2ccccc2)cc1 (stereo not given)"
  growth, %: 67.5
- compound: "COc1cccc2nc(Nc3cccc(NC(=O)c4cc(N5CCOCC5)cc(C(F)(F)F)c4)c3)ccc12"
  growth, %: 36.8
- compound: "COc1ccc(C2CC(c3cccc(Nc4ccnc5cc(Cl)ccc45)c3)=NN2c2ccc(Cl)cc2)cc1 (stereo not given)"
  growth, %: 60.7

----------
Listed here are compounds together with their documented growth.
tested on: M14 melanoma; assay: NCI-60 one-dose screen, 48 h (100 = growth as untreated, 0 = no growth, -100 = all killed); settings: 10 µM unless noted
The panel holds about 83,000 compounds, 20% with a hit somewhere; the sample as a whole holds those more often.
assay_metric: growth (%)

- compound: "N=C(N)c1ccc(-c2ccc(-c3cc(Cl)cc(Cl)c3)o2)nc1"
  unit_abbrev: "%"
  measured_value: -76.4
- compound: "CCCCCCCCCCCCCCCC1=NCC[N+]1(CCO)CCO"
  unit_abbrev: "%"
  measured_value: 7.86
- compound: "COc1ccc(-c2cn(-c3cccc(C(=O)/C=C/c4ccc(O)c(OC)c4)c3)c(=O)[nH]2)cc1"
  unit_abbrev: "%"
  measured_value: 51
- compound: "COc1c(-c2cc(-c3ccc(C)o3)[nH]c(=O)n2)c(O)cc2occc12"
  unit_abbrev: "%"
  measured_value: 44.7
- compound: "Clc1ccc2c(c1)-c1ccccc1C1=NCCN12"
  unit_abbrev: "%"
  measured_value: 37.8
- compound: "COc1ccc(Sc2[nH]c(C=O)c3ccccc23)cc1"
  unit_abbrev: "%"
  measured_value: 76.6
- compound: "COc1cc(CN2CCO[C@H](COc3cccc(F)c3)C2)ccc1Cl"
  unit_abbrev: "%"
  measured_value: 39.1
- compound: "O=C(C(=O)c1cccnc1)c1cccnc1"
  unit_abbrev: "%"
  measured_value: 96.3
- compound: "COc1cc2nccc(Oc3ccc(NC(=O)C4(C(=O)Nc5ccc(F)cc5)CC4)cc3)c2cc1O"
  unit_abbrev: "%"
  measured_value: 49.5
- compound: "COc1ccc(C(=O)/C=C/c2cn(-c3ccccc3)nc2-c2cccc(Nc3ccnc4cc(Cl)ccc34)c2)cc1"
  unit_abbrev: "%"
  measured_value: 110
- compound: "COc1ccc2nc(C)cc(Nc3ccccc3O)c2c1"
  unit_abbrev: "%"
  measured_value: 81.8
- compound: "c1ccc(C2=Nc3ccccc3SC2)cc1"
  unit_abbrev: "%"
  measured_value: 103
- compound: "C/C(=N\\NC(=S)N1CCCCC1)c1ccccn1"
  unit_abbrev: "%"
  measured_value: -33.4
- compound: "Nc1ccc(C(OC(=O)c2cc3ccccc3c(Cc3c(O)c(C(=O)OC(c4ccc(N)cc4)(c4ccc(N)cc4)c4ccc(N)cc4)cc4ccccc34)c2O)(c2ccc(N)cc2)c2ccc(N)cc2)cc1"
  unit_abbrev: "%"
  measured_value: 14.9
- compound: "COc1ccc(-c2nc3ccc(Cc4ccc5nc(-c6ccc(OC)cc6)[nH]c5c4)cc3[nH]2)cc1"
  unit_abbrev: "%"
  measured_value: 40.1
- compound: "C#CC[C@@H]1C[C@]2(C)[C@H]3CC[C@@H]4[C@H]5C(C(=C)C)CC[C@]5(C(=O)NCCCCN)CC[C@@]4(C)[C@]3(C)CC[C@H]2C(C)(C)[C@H]1OC(C)=O (stereo partly drawn)"
  unit_abbrev: "%"
  measured_value: -58.5
- compound: "N=c1n(Cc2ccccc2)c(N)cc(=O)n1Cc1ccccc1"
  unit_abbrev: "%"
  measured_value: 84.6
- compound: "COCCCNCC(=O)Nc1c(C)cccc1C"
  unit_abbrev: "%"
  measured_value: 114
- compound: "Clc1ccc(Nc2ncnc3c2sc2ncccc23)cc1"
  unit_abbrev: "%"
  measured_value: -21.5
- compound: "COc1cc2c(cc1OC)C(=O)C(Br)CC2 (stereo not drawn)"
  unit_abbrev: "%"
  measured_value: 32
- compound: "CCc1ccc(-c2ccc(NC3CCCCCC3)nn2)cc1S(N)(=O)=O"
  unit_abbrev: "%"
  measured_value: 104
- compound: "COC(=O)c1ccc(NC(N)=NCCC(C)(C)c2ccc(C(F)(F)F)cc2)nc1"
  unit_abbrev: "%"
  measured_value: -40
- compound: "c1ccc(C(CC2=NCCCN2)c2ccccc2)cc1"
  unit_abbrev: "%"
  measured_value: 92.5
- compound: "COc1ccc(/C=C(/C(=O)N2CCN(c3ccccc3)CC2)c2cc(OC)c(OC)c(OC)c2)cc1N"
  unit_abbrev: "%"
  measured_value: 1.47
- compound: "CCOCC(O)(c1ccc(Cl)cc1)c1ccc(Cl)cc1"
  unit_abbrev: "%"
  measured_value: 114
- compound: "CC(=O)N(C)c1ccc(Nc2cc(C)[nH]c3ccc4ncnc4c23)cc1"
  unit_abbrev: "%"
  measured_value: 76.9
- compound: "CCOC(=O)Nc1ccc2nc(-c3cscn3)[nH]c2c1"
  unit_abbrev: "%"
  measured_value: 16.1
- compound: "CCCCn1c(-c2ccc(F)cc2)nc2cc(OC)c(OC)cc2c1=O"
  unit_abbrev: "%"
  measured_value: 127
- compound: "CCCc1n(Cc2ccc3ccccc3n2)cc[n+]1Cc1ccc2ccccc2c1"
  unit_abbrev: "%"
  measured_value: 3.06
- compound: "Cc1nc2c(-c3cnc(N)nc3)nc(N3CCOCC3)nc2n1C(C)C"
  unit_abbrev: "%"
  measured_value: 4.2
- compound: "Cc1ccc(Nc2nc(NCCO)c3ccccc3n2)cc1C"
  unit_abbrev: "%"
  measured_value: 24.4
- compound: "C=CCn1c(C)nc2cc(Nc3nc(Nc4ccc5nc(C)n(CC=C)c5c4)nc4ccccc34)ccc21"
  unit_abbrev: "%"
  measured_value: 109
- compound: "N#Cc1c(NN)n(C2OC(CO)C(O)C2O)c2ncnc(N)c12 (stereo not drawn)"
  unit_abbrev: "%"
  measured_value: -18.3
- compound: "O=C(/C=C/c1cccc([N+](=O)[O-])c1)c1ccc(Nc2nc(N3CCCCC3)nc(N3CCCCC3)n2)cc1"
  unit_abbrev: "%"
  measured_value: 98
- compound: "CC(CN1CCN(C)CC1)CN1c2ccccc2Sc2ccc(C(F)(F)F)cc21 (stereo not drawn)"
  unit_abbrev: "%"
  measured_value: 0.817
- compound: "Cc1ccccc1N1C(c2ccccc2)=NNC12C=CC(=O)c1c(O)cccc12 (stereo not drawn)"
  unit_abbrev: "%"
  measured_value: 75.5
- compound: "C#CCNC(=S)N/N=C(\\C)c1ccccn1"
  unit_abbrev: "%"
  measured_value: -21.7
- compound: "Cc1cc(C)c(C#N)c(SCC(=O)c2sc3c(C#N)c(C)cc(C)[n+]3c2[O-])n1"
  unit_abbrev: "%"
  measured_value: 12.2
- compound: "O=C(Nc1ccc(Oc2ccc(NC(=O)Nc3ccccc3Cl)cc2)cc1)Nc1ccccc1Cl"
  unit_abbrev: "%"
  measured_value: 65
- compound: "CCN(CC)C(Cl)=Nc1ccc(Cl)cc1"
  unit_abbrev: "%"
  measured_value: 107
- compound: "CCN(CC)CCC(CNc1ccnc2cc(Cl)ccc12)c1ccc(O)cc1 (stereo not drawn)"
  unit_abbrev: "%"
  measured_value: 6.04
- compound: "COc1cccc(CC(C)=C(c2ccc(OCCCN(C)C)cc2)c2ccc(OCCCN(C)C)cc2)c1"
  unit_abbrev: "%"
  measured_value: -80
- compound: "CC1C2CCC(C2)C1COCCOCCO (stereo not drawn)"
  unit_abbrev: "%"
  measured_value: 112

----------
tested on: NCI-H226 lung; experiment: NCI-60 one-dose screen, 48 h; settings: 10 µM unless noted
About 83,000 compounds went through this panel and 20% of them were active in at least one assay; those are over-represented in the sample as a whole. Activity calls are given as the source filed them. The calls were made as follows: active = growth percent below 10; inactive = the rest.
Outcome codes: label 1 = active, label 0 = inactive

- molecule: "N=c1n(Cc2ccccc2)c(N)cc(=O)n1Cc1ccccc1"
  cat: "label 1"
- molecule: "Cc1ccc(NC(=O)c2[nH]c(SCCN(C)C)nc2-c2ccc(F)cc2)cc1C#Cc1cnc2cccnn12"
  cat: "label 0"
- molecule: "Cn1nc(C(F)(F)F)cc1-c1cc(Cl)c(OCc2ccc(Cl)cc2)c(-c2ccc(Cl)c(C(F)(F)F)c2)c1O"
  cat: "label 1"
- molecule: "CC(CN1CCN(CCOCCO)CC1)CN1c2ccccc2Sc2ccc(Cl)cc21 (stereo not given)"
  cat: "label 0"
- molecule: "O=C1OC(c2ccc(-c3ccccc3)cc2)=C/C1=C/c1c(Cl)cccc1Cl"
  cat: "label 0"
- molecule: "O=C(Nc1cccc(Cl)c1)Nc1cc(C(F)(F)F)ccc1Cl"
  cat: "label 0"
- molecule: "COc1ccccc1NC(=O)OCC12COCN1COC2"
  cat: "label 0"
- molecule: "Nc1c(C(=O)c2ccc(Br)cc2)sc2nc3c(cc12)CCCC3"
  cat: "label 0"
- molecule: "O=C(Nc1ccc(OS(=O)(=O)c2ccc(F)cc2)cc1)C12CC3CC(CC(C3)C1)C2"
  cat: "label 0"
- molecule: "CCCCc1n(Cc2ccc3ccccc3n2)cc[n+]1Cc1ccc2ccccc2n1"
  cat: "label 0"
